TARGET DESC: mAChR M4 (Homo sapiens, UniProt P08173)
Construct: expressed in transfected cells; host or cells: CHO-K1 cells stably transfected with M4 cDNA and chimeric G-protein Gqi5
Sequence (P08173 whole entry): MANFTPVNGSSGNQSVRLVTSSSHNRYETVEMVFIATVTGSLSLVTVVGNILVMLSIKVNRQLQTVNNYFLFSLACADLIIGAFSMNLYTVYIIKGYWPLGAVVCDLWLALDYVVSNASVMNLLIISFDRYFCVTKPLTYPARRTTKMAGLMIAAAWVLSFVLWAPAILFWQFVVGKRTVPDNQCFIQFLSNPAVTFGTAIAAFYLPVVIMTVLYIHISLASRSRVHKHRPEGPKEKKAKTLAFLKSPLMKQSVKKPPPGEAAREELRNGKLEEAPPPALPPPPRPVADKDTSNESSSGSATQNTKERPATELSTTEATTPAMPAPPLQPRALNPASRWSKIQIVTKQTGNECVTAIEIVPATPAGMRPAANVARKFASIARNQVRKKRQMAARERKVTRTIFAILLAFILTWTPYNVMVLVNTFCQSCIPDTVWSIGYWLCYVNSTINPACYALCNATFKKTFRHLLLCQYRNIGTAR
METHOD SUMMARY: mAChR M4 cell-based functional assay (calcium mobilization, potentiation of EC20 acetylcholine response)
RECORDED CONDITIONS: mAChR M4 cell-based functional assay; >10,000 estimated for low potency compounds without plateau; read-out: EC50
READOUT: EC50 (nM)

See these solved cases before continuing.
MOLECULE | TARGET DESC | UNITS TEXT | EC50
Cc1nnc2sc(C(=O)N3CC(NC(=O)C4CC4c4ccccc4)C3)c(N)c2c1C (stereo not drawn) [Example B182] | mAChR M4 (Homo sapiens, UniProt P08173) | nM | 2300
Cc1nnc2sc(C(=O)NC3CN(C(=O)c4ccc(F)c(F)c4)C3)c(N)c2c1C [Example B131] | mAChR M4 (Homo sapiens, UniProt P08173) | nM | 150
Cc1nnc2sc(C(=O)NCc3c(F)ccc(F)c3Cl)c(N)c2c1C [Example B85] | mAChR M4 (Homo sapiens, UniProt P08173) | nM | 47
Cc1nnc2sc(C(=O)N3CC4(C3)CN(S(=O)(=O)c3ccccc3)C4)c(N)c2c1C [Example B394] | mAChR M4 (Homo sapiens, UniProt P08173) | nM | 1100

[1] Cc1nnc2sc(C(=O)N3CC4CN(c5ccc(C#N)nc5)CC4C3)c(N)c2c1C (stereo not drawn) [Example B436]
[2] Cc1cccc(N2CCC(NC(=O)c3sc4nnc(C)c(C)c4c3N)C2)c1 (stereo not drawn) [Example B265]
[3] Cc1cccc(OC(=O)N2CC(NC(=O)c3sc4nnc(C)c(C)c4c3N)C2)c1 [Example B365]
[4] Cc1nnc2sc(C(=O)NCc3ccc(C(F)F)cc3)c(N)c2c1C [Example B260]
**Q:** Ascending by EC50, please: list the molecules accordingly. # list labels per requested ordering
**A:** 3, 4, 2, 1
(3: 7.9 nM, 4: 34 nM, 2: 120 nM, 1: 980 nM)
